- Study target: CaFus1
- Measurement protocol: SPOT peptide array binding signal intensity (averaged, normalized) (arbitrary units (background-subtracted, floor 0; scale differs between SH3 domains)); higher = stronger binding of the SH3 domain to the peptide
Assay metric: SPOT peptide array binding signal intensity
Answer with a bare number; do not write a unit.

NNFYRPLLRSVLVLL	2730
VFQFQMPTTPISTKM	820
KIRRSSLMIPNPQQF	383
YSRKKLPVVLSKMTL	166
AVPPPPPPPPLPESL	2
RPKRRAPPPVPKKPS	350
YRRKSIPFAPHQITA	159

Query binder follows.
For the binder shown here, "PPPPPPPPPPPLPQS" , give the reported SPOT peptide array binding signal intensity.
8.5
